Listed below: shrunken log2 fold change values for each entry.
system: Escherichia coli TOP10; assay: shrunken log2 fold change of peptide-encoding DNA abundance (4.5 h post-induction vs induction); higher = less antimicrobial activity (less host growth inhibition); conditions: time post-induction: 4.5 h; library: site-saturation at positions 5, 18, 19, 20;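 further: peptides expressed intracellularly from a pBAD plasmid library in pooled LB shake-flask culture, induced with 0.3% L-arabinose, DNA abundance read by NGS, three biological replicates, DESeq2 with apeglm shrinkage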
Keep it simple and answer with nothing but the number.

Past entries and their recorded results:
RRIRMRPPRLPRPRPRPFHFPRP : -0.313
RRIRMRPPRLPRPRPRPDSKPRP : 0.732
RRIRMRPPRLPRPRPRPWHDPRP : 0.162
RRIRTRPPRLPRPRPRPTHNPRP : 0.0318
RRIRVRPPRLPRPRPRPYNEPRP : -0.429

For the next question, use this sequence.
For "RRIRCRPPRLPRPRPRPDVLPRP" , what is its reported shrunken log2 fold change?
-0.489

Reference source for all entries: the supplement of paper PMC9112550
